# Measured target: human glucagon receptor (GCGR) (human, UniProt P47871 26-477)
# Sequence (P47871 26-477): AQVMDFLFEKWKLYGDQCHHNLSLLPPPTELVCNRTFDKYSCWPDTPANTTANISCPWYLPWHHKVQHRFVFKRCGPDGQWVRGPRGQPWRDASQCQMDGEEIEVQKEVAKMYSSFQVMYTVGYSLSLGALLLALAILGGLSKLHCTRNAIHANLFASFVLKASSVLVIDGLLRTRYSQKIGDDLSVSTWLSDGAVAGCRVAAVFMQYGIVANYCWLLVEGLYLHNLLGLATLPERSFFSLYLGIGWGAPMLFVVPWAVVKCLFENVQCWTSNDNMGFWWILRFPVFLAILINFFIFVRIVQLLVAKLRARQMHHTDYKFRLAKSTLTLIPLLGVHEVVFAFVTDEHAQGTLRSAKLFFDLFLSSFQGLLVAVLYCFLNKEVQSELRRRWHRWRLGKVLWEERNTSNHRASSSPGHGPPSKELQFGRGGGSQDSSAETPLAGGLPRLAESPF
# Assay comment: cell-based or functional assay
*1 amine or outer side, *2 acyl side, *3 side chain or, on linkers, in order; H or OH if unused. Primed or numbered codes have the meaning given here. Where no end group is shown, it is not given here. Side-chain parts run from the residue outwards. [ ]: non-standard residue; d: D form. The star is where a group is joined. PEG4′ = 4 PEG units (K(PEGxpalm): Lys with x PEG units and palmitoyl at epsilon N, C-terminal (PEG)4); γGlu = O=C(O)[C@H](CCC(=O)[*:2])N[*:1]; Palmitoyl = CCCCCCCCCCCCCCCC(=O)*
Measured parameter: cAMP activity, Glcg EC50 nM (nM)
Supply the numeric figure in nM, leaving out any unit text.

I have this binder here, HGQGTFTSDYSKYLDSXRAQDFVQWLV (K(gE-palm) at 17; C-terminal PEG4) [g430] , and I need its recorded cAMP activity, Glcg EC50 nM.
0.8

Entry HSQGTFTSDYSKYLDK([γGlu-Palmitoyl])RRAQDFVQWLV[PEG4′] [g424] has what cAMP activity, Glcg EC50 nM?
0.009

What does the data say about its cAMP activity, Glcg EC50 nM? Entry: HSQGTFTSDYSKYLDK([PEG4′-Palmitoyl])RRAQDFVQWEV[PEG4′] [g497]
0.3
